This collection of values is drawn from patent US4883821A.

- experiment-description: acute toxicity test in rats
- Type: in vivo
- conditions-used: rat, in vivo, po, female
endpoint-label: LD50 (mg/kg)
Report the figure in mg/kg without appending any unit label.

Give its LD50 value. Item: CC(C)CCCC(C)Cc1ccc(C(C)CC(=O)NCCO)cc1 (stereo not shown)
1910

----------
- experiment-description: acute toxicity test in rats
- Type: in vivo
- conditions-used: rat, in vivo, po, male
endpoint-label: LD50
Put your answer as a value accompanied by its unit after it.

Give its LD50 value. Item: CC(C)CCCC(C)Cc1ccc(C(C)CC(=O)NCCO)cc1 (stereo not shown)
4260 mg/kg

----------
- experiment-description: acute toxicity test in mice
- conditions-used: mouse, in vivo, ip, male, intraperitoneal
endpoint-label: LD50 (mg/kg)
Report the figure in mg/kg without appending any unit label.

Give its LD50 value. Item: CC(C)CCCC(C)Cc1ccc(C(C)CC(=O)NCCO)cc1 (stereo not shown) [compound of the present invention]
792

----------
- experiment-description: acute toxicity test in mice
- conditions-used: mouse, in vivo, sc, male, subcutaneous
endpoint-label: LD50

Give its LD50 value. Item: CC(C)CCCC(C)Cc1ccc(C(C)CC(=O)NCCO)cc1 (stereo not shown) [compound of the present invention]
> 5000 mg/kg

----------
- experiment-description: acute toxicity test in rats
- Format: in vivo
- conditions-used: rat, in vivo, sc, female, subcutaneous
endpoint-label: LD50
Put your answer as a value accompanied by its unit after it.

Give its LD50 value. Item: CC(C)CCCC(C)Cc1ccc(C(C)CC(=O)NCCO)cc1 (stereo not shown)
6350 mg/kg

----------
- experiment-description: acute toxicity test in mice
- conditions-used: mouse, in vivo, po, male
endpoint-label: LD50

Give its LD50 value. Item: CC(C)CCCC(C)Cc1ccc(C(C)CC(=O)NCCO)cc1 (stereo not shown) [compound of the present invention]
> 2560 mg/kg

----------
- experiment-description: acute toxicity test in rats
- Assay type: in vivo
- conditions-used: rat, in vivo, ip, female, intraperitoneal
endpoint-label: LD50 (mg/kg)
Report the figure in mg/kg without appending any unit label.

Give its LD50 value. Item: CC(C)CCCC(C)Cc1ccc(C(C)CC(=O)NCCO)cc1 (stereo not shown)
572

----------
- experiment-description: acute toxicity test in rats
- Format: in vivo
- conditions-used: rat, in vivo, ip, male, intraperitoneal
endpoint-label: LD50

Give its LD50 value. Item: CC(C)CCCC(C)Cc1ccc(C(C)CC(=O)NCCO)cc1 (stereo not shown) [compound of the present invention]
1340 mg/kg

----------
- experiment-description: acute toxicity test in rats
- Format: in vivo
- conditions-used: rat, in vivo, sc, male, subcutaneous
endpoint-label: LD50

Give its LD50 value. Item: CC(C)CCCC(C)Cc1ccc(C(C)CC(=O)NCCO)cc1 (stereo not shown) [compound of the present invention]
> 8000 mg/kg
